attribute-measured: MIC

Prompt: For Micrococcus luteus ATCC 9341, provide MIC of CC[C@H]1OC(=O)[C@H](C)C(=O)[C@H](C)[C@@H](O[C@@H]2O[C@H](C)C[C@H](N(C)C)[C@H]2O)[C@](C)(OC/C=C/c2ccc(-c3nccs3)s2)C[C@@H](C)C(=O)[C@H](C)[C@H]2NC(=O)O[C@@]21C [Example 63] please.
Completion: 0.05 µg/mL

Prompt: For Micrococcus luteus ATCC 9341, provide MIC of CC[C@H]1OC(=O)[C@H](C)C(=O)[C@H](C)[C@@H](O[C@@H]2O[C@H](C)C[C@H](N(C)C)[C@H]2O)[C@](C)(OC/C=C/c2ccc(-c3cnc(N)s3)s2)C[C@@H](C)C(=O)[C@H](C)[C@H]2NC(=O)O[C@@]21C [Example 53] please.
Completion: 0.01 µg/mL

Prompt: For Micrococcus luteus ATCC 9341, provide MIC of CC[C@H]1OC(=O)[C@H](C)C(=O)[C@H](C)[C@@H](O[C@@H]2O[C@H](C)C[C@H](N(C)C)[C@H]2O)[C@](C)(OCC#Cc2ccc(-c3cccc(C(F)(F)F)c3)s2)C[C@@H](C)C(=O)[C@H](C)[C@H]2NC(=O)O[C@@]21C [Example 19] please.
Completion: 0.2 µg/mL

Prompt: For Micrococcus luteus ATCC 9341, provide MIC of CC[C@H]1OC(=O)[C@H](C)C(=O)[C@H](C)[C@@H](O[C@@H]2O[C@H](C)C[C@H](N(C)C)[C@H]2O)[C@](C)(OCC#Cc2ccc(-c3cc(Cl)cc(Cl)c3)s2)C[C@@H](C)C(=O)[C@H](C)[C@H]2NC(=O)O[C@@]21C [Example 17] please.
Completion: 0.39 µg/mL

Prompt: For Micrococcus luteus ATCC 9341, provide MIC of CC[C@H]1OC(=O)[C@H](C)C(=O)[C@H](C)[C@@H](O[C@@H]2O[C@H](C)C[C@H](N(C)C)[C@H]2O)[C@](C)(OCC#Cc2ccc(-c3cc4ccccc4s3)s2)C[C@@H](C)C(=O)[C@H](C)[C@H]2NC(=O)O[C@@]21C [Example 34] please.
Completion: 0.02 µg/mL

Prompt: For Micrococcus luteus ATCC 9341, provide MIC of CC[C@H]1OC(=O)[C@H](C)C(=O)[C@H](C)[C@@H](O[C@@H]2O[C@H](C)C[C@H](N(C)C)[C@H]2O)[C@](C)(OC/C=C/c2ccc(-c3cccnc3)s2)C[C@@H](C)C(=O)[C@H](C)[C@H]2NC(=O)O[C@@]21C [Example 68] please.
Completion: 0.02 µg/mL

Prompt: For Micrococcus luteus ATCC 9341, provide MIC of CC[C@H]1OC(=O)[C@H](C)C(=O)[C@H](C)[C@@H](O[C@@H]2O[C@H](C)C[C@H](N(C)C)[C@H]2O)[C@](C)(OC/C=C/c2cncc(-c3ccccc3)c2)C[C@@H](C)C(=O)[C@H](C)[C@H]2NC(=O)O[C@@]21C [Example 42] please.
Completion: 0.02 µg/mL

Prompt: For Micrococcus luteus ATCC 9341, provide MIC of CC[C@H]1OC(=O)[C@H](C)C(=O)[C@H](C)[C@@H](O[C@@H]2O[C@H](C)C[C@H](N(C)C)[C@H]2O)[C@](C)(OC/C=C/c2nc(-c3cccnc3)cs2)C[C@@H](C)C(=O)[C@H](C)[C@H]2NC(=O)O[C@@]21C [Example 65] please.
Completion: 0.02 µg/mL

Prompt: For Micrococcus luteus ATCC 9341, provide MIC of CC[C@H]1OC(=O)[C@H](C)C(=O)[C@H](C)[C@@H](O[C@@H]2O[C@H](C)C[C@H](N(C)C)[C@H]2O)[C@](C)(OC/C=C/c2cncc(-c3ncccn3)c2)C[C@@H](C)C(=O)[C@H](C)[C@H]2NC(=O)O[C@@]21C [Example 46] please.
Completion: 0.05 µg/mL

Prompt: For Micrococcus luteus ATCC 9341, provide MIC of CC[C@H]1OC(=O)[C@H](C)C(=O)[C@H](C)[C@@H](O[C@@H]2O[C@H](C)C[C@H](N(C)C)[C@H]2O)[C@](C)(OC/C=C/c2ccc(-c3ccco3)s2)C[C@@H](C)C(=O)[C@H](C)[C@H]2NC(=O)O[C@@]21C [Example 77] please.
Completion: 0.02 µg/mL

Prompt: For Micrococcus luteus ATCC 9341, provide MIC of CC[C@H]1OC(=O)[C@H](C)C(=O)[C@H](C)[C@@H](O[C@@H]2O[C@H](C)C[C@H](N(C)C)[C@H]2O)[C@](C)(OC/C=C/c2ccc3ncc(Br)cc3c2)C[C@@H](C)C(=O)[C@H](C)[C@H]2NC(=O)O[C@@]21C [Example 38] please.
Completion: 0.05 µg/mL

Prompt: For Micrococcus luteus ATCC 9341, provide MIC of CC[C@H]1OC(=O)[C@H](C)C(=O)[C@H](C)[C@@H](O[C@@H]2O[C@H](C)C[C@H](N(C)C)[C@H]2O)[C@](C)(OCC#Cc2ccc(-c3cccc([N+](=O)[O-])c3)s2)C[C@@H](C)C(=O)[C@H](C)[C@H]2NC(=O)O[C@@]21C [Example 21] please.
Completion: 0.02 µg/mL

Prompt: For Micrococcus luteus ATCC 9341, provide MIC of CC[C@H]1OC(=O)[C@H](C)C(=O)[C@H](C)[C@@H](O[C@@H]2O[C@H](C)C[C@H](N(C)C)[C@H]2O)[C@](C)(OCC#Cc2ccc(-c3ncccn3)s2)C[C@@H](C)C(=O)[C@H](C)[C@H]2NC(=O)O[C@@]21C [Example 5] please.
Completion: 0.01 µg/mL

Prompt: For Micrococcus luteus ATCC 9341, provide MIC of CC[C@H]1OC(=O)[C@H](C)C(=O)[C@H](C)[C@@H](O[C@@H]2O[C@H](C)C[C@H](N(C)C)[C@H]2O)[C@](C)(OC/C=C/c2ccc(-c3cnccn3)s2)C[C@@H](C)C(=O)[C@H](C)[C@H]2NC(=O)O[C@@]21C [Example 62] please.
Completion: ≤ 0.005 µg/mL

Prompt: For Micrococcus luteus ATCC 9341, provide MIC of CC[C@H]1OC(=O)[C@H](C)C(=O)[C@H](C)[C@@H](O[C@@H]2O[C@H](C)C[C@H](N(C)C)[C@H]2O)[C@](C)(OC/C=C/c2ccc(-c3ccccn3)s2)C[C@@H](C)C(=O)[C@H](C)[C@H]2NC(=O)O[C@@]21C [Example 75] please.
Completion: 0.02 µg/mL

Prompt: For Micrococcus luteus ATCC 9341, provide MIC of CC[C@H]1OC(=O)[C@H](C)C(=O)[C@H](C)[C@@H](O[C@@H]2O[C@H](C)C[C@H](N(C)C)[C@H]2O)[C@](C)(OCC#Cc2ccc(-c3cncnc3)s2)C[C@@H](C)C(=O)[C@H](C)[C@H]2NC(=O)O[C@@]21C [Example 4] please.
Completion: 0.01 µg/mL

---

Please respond with reported MIC for every item in the list.
# Tested on: Streptococcus pyogenes PIU 2548
State the answer as a number, implicitly in µg/mL.

Prompt: What value of measured MIC is listed for `CC[C@H]1OC(=O)[C@H](C)C(=O)[C@H](C)[C@@H](O[C@@H]2O[C@H](C)C[C@H](N(C)C)[C@H]2O)[C@](C)(OC/C=C/c2cncc(-c3cncs3)c2)C[C@@H](C)C(=O)[C@H](C)[C@H]2NC(=O)O[C@@]21C` ?
Completion: 0.1

Prompt: What value of measured MIC is listed for `CC[C@H]1OC(=O)[C@H](C)C(=O)[C@H](C)[C@@H](O[C@@H]2O[C@H](C)C[C@H](N(C)C)[C@H]2O)[C@](C)(OC/C=C/c2ccc(-c3ncccn3)s2)C[C@@H](C)C(=O)[C@H](C)[C@H]2NC(=O)O[C@@]21C` ?
Completion: 0.1

Prompt: What value of measured MIC is listed for `CC[C@H]1OC(=O)[C@H](C)C(=O)[C@H](C)[C@@H](O[C@@H]2O[C@H](C)C[C@H](N(C)C)[C@H]2O)[C@](C)(OCC#Cc2ccc(-c3cccc(C(F)(F)F)c3)s2)C[C@@H](C)C(=O)[C@H](C)[C@H]2NC(=O)O[C@@]21C` ?
Completion: 0.39

Prompt: What value of measured MIC is listed for `CC[C@H]1OC(=O)[C@H](C)C(=O)[C@H](C)[C@@H](O[C@@H]2O[C@H](C)C[C@H](N(C)C)[C@H]2O)[C@](C)(OC/C=C/c2ccc(-c3cccnc3)s2)C[C@@H](C)C(=O)[C@H](C)[C@H]2NC(=O)O[C@@]21C` ?
Completion: 6.2

Prompt: What value of measured MIC is listed for `CC[C@H]1OC(=O)[C@H](C)C(=O)[C@H](C)[C@@H](O[C@@H]2O[C@H](C)C[C@H](N(C)C)[C@H]2O)[C@](C)(OC/C=C/c2cncc(-c3ccsc3)c2)C[C@@H](C)C(=O)[C@H](C)[C@H]2NC(=O)O[C@@]21C` ?
Completion: 0.2

Sourced from patent US6054435A
